studyTarget: CDK2/cyclin A (Homo sapiens, UniProt P20248)
measurementDescription: Competitive binding assay (fluorescence polarisation, fluorescein tracer peptide)
assaySetup: purified recombinant human CDK2/cyclin A; tracer fluorescein-Ahx-His-Ala-Lys-Arg-Arg-Leu-Ile-Phe-NH2; 1 h room temperature; read-out: Inhibitory activity IC50 ± SD, Competitive binding assay
Method: Competitive Binding Assay This assay was performed using half-area black 96-well microtitre plates. […] After incubation with shaking for 1 h at room temperature, fluorescence polarisation at 485-520 nm was measured using a Tecan Ultra reader. Half-maximal inhibition (IC50) was calculated from dose—response curves.
Non-standard residues stand in square brackets, D forms with d. Residues, ends and D or L forms follow the SMILES beside them. *: point of attachment. X14 = O=C(c1ccc(-n2cncn2)c([N+](=O)[O-])c1)*; X3 = Cc1nc(C(=O)*)nn1-c1ccc([N+](=O)[O-])cc1; X6 = O=C(COn1c(-c2ccccc2)nc2ccc(Cl)cc21)*; X8 = COc1cc(-n2nc(C(=O)*)nc2C)c(Cl)cc1Cl; X11 = Cc1nc(C(=O)*)nn1-c1cc(Cl)cc(Cl)c1; Phe(4-F) = N[C@@H](Cc1ccc(F)cc1)C(=O)O; X5 = Cc1nc(C(=O)*)nn1-c1ccc(Cl)cc1; X1 = Cc1nc(C(=O)*)nn1-c1ccc(F)cc1; X12 = O=C(c1ccc(N2CCNC2=S)cc1)*
metricName: IC50 (µM)

compound="Cc1nc(C(=O)N[C@@H](CCCNC(=N)N)C(=O)N[C@@H](CC(C)C)C(=O)N[C@@H](CC(N)=O)C(=O)N[C@@H](Cc2ccc(F)cc2)C(N)=O)nn1-c1cc(Cl)cc(Cl)c1 [Compound 10] (X11-RLN[Phe(4-F)]-NH2)" metricname=IC50 reportedmeasurement=2.1
compound="CC(C)C[C@H](NC(=O)[C@H](CCCNC(=N)N)NC(=O)c1ccc(N2CCNC2=S)cc1)C(=O)N[C@@H](CC(N)=O)C(=O)N[C@@H](Cc1ccc(F)cc1)C(N)=O [Compound 5] (X12-RLN[Phe(4-F)]-NH2)" metricname=IC50 reportedmeasurement=5.8
compound="CC(C)C[C@H](NC(=O)[C@H](CCCNC(=N)N)NC(=O)c1ccc(-n2cncn2)c([N+](=O)[O-])c1)C(=O)N[C@@H](CC(N)=O)C(=O)N[C@@H](Cc1ccc(F)cc1)C(N)=O [Compound 8] (X14-RLN[Phe(4-F)]-NH2)" metricname=IC50 reportedmeasurement=28
compound="CC(C)C[C@H](NC(=O)[C@H](CCCNC(=N)N)NC(=O)COn1c(-c2ccccc2)nc2ccc(Cl)cc21)C(=O)N[C@@H](CC(N)=O)C(=O)N[C@@H](Cc1ccc(F)cc1)C(N)=O [Compound 11] (X6-RLN[Phe(4-F)]-NH2)" metricname=IC50 reportedmeasurement=12
compound="CC(C)C[C@@H](CNc1cccc(OCc2ccccc2)c1)NC(=O)[C@H](CCCNC(=N)N)NC(=O)[C@@H](N)CCCNC(=N)N [Compound 30]" metricname=IC50 reportedmeasurement=58.2
compound="Cc1nc(C(=O)N[C@@H](CCCNC(=N)N)C(=O)N[C@@H](CC(C)C)C(=O)N[C@@H](CC(N)=O)C(=O)N[C@@H](Cc2ccc(F)cc2)C(N)=O)nn1-c1ccc(Cl)cc1 [Compound 3] (X5-RLN[Phe(4-F)]-NH2)" metricname=IC50 reportedmeasurement=4.1
compound="Cc1nc(C(=O)N[C@@H](CCCNC(=N)N)C(=O)N[C@@H](CC(C)C)C(=O)N[C@@H](CC(N)=O)C(=O)N[C@@H](Cc2ccc(F)cc2)C(N)=O)nn1-c1ccc([N+](=O)[O-])cc1 [Compound 7] (X3-RLN[Phe(4-F)]-NH2)" metricname=IC50 reportedmeasurement=6.4
compound="COc1cc(-n2nc(C(=O)N[C@@H](CCCNC(=N)N)C(=O)N[C@@H](CC(C)C)C(=O)N[C@@H](CC(N)=O)C(=O)N[C@@H](Cc3ccc(F)cc3)C(N)=O)nc2C)c(Cl)cc1Cl [Compound 2] (X8-RLN[Phe(4-F)]-NH2)" metricname=IC50 reportedmeasurement=0.93
compound="Cc1nc(C(=O)N[C@@H](CCCNC(=N)N)C(=O)N[C@@H](CC(C)C)C(=O)N[C@@H](CC(N)=O)C(=O)N[C@@H](Cc2ccc(F)cc2)C(N)=O)nn1-c1ccc(F)cc1 [Compound 6] (X1-RLN[Phe(4-F)]-NH2)" metricname=IC50 reportedmeasurement=6.1
